melting point for assorted compounds

STRUCTURE	OBSERVED MEASUREMENT
CCCn1nc2c(N)nc3ccccc3c2c1NCCC1CCN(C(=O)NC(C)C)CC1	168 to 170 °C
CCCn1nc2c(N)nc3ccccc3c2c1N	253 °C (dec.)

Proceed to the following item.
# input Tell me the measured melting point of CCCn1nc2c(N)nc3ccccc3c2c1NCc1ccccc1 , please.
# output 160 to 161 °C

* * *

VALUE KIND: melting point

Please review the entries below; each comes with its answer.
COMPOUND	melting point
CCCn1nc2c(N)nc3ccccc3c2c1NC [Example 35]	200 to 201 °C
CCCn1nc2c(N)nc3ccccc3c2c1NCCC1CCN(C(C)=O)CC1 [Example 6]	203 to 206 °C
CCCn1nc2c(N)nc3ccccc3c2c1NC(C)C [Example 36]	199 to 200 °C

# input Fill in: melting point of CCCn1nc2c(N)nc3ccccc3c2c1NCC [Example 2] is ___
# output 193 to 194 °C
